Origin of the recorded values: PubChem BioAssay (Tox21)

# TEST PROTOCOL: qHTS RealTime-Glo MT Cell Viability Assay in HepG2 cells - 8 hour (AID 1224873); also: nearly all actives have a fitted effect of over 55% in size
# EXPERIMENTAL CONDITIONS: RealTime-Glo luminescence; series mostly up to 76.8 µM
Records with an inconclusive call do not appear. Active and inactive are the calls of the source. Calls follow the shape of the dose curve; as a rule, active = well fitted cell-killing curve with a large enough effect in the repeat runs; inconclusive = weak or mixed curves; inactive = flat fitted curve, though single readings scatter.

COMPOUND: COc1ccc(-c2cc(C(F)F)nn2-c2ccc(S(N)(=O)=O)cc2)cc1F
viability change, negative = cytotoxic: inactive

COMPOUND: COc1ccc2nc(S(=O)Cc3ncc(C)c(OC)c3C)[nH]c2c1 (centres undefined)
viability change, negative = cytotoxic: inactive

COMPOUND: CCC(CO)(CO)CO
viability change, negative = cytotoxic: inactive

COMPOUND: O=C(O)CN1C(=O)c2cccc3cccc(c23)C1=O
viability change, negative = cytotoxic: inactive

COMPOUND: CCCCCCCCCCCCCCCC(=O)OCC
viability change, negative = cytotoxic: inactive

COMPOUND: O=NN(CCCl)C(=O)NCCCl
viability change, negative = cytotoxic: inactive

COMPOUND: Oc1cccc2[nH]ccc12
viability change, negative = cytotoxic: inactive

COMPOUND: CC(=O)C(=O)CC(C)C
viability change, negative = cytotoxic: inactive

COMPOUND: O=CNNC=O
viability change, negative = cytotoxic: inactive

COMPOUND: CCCCCCC(O)CCOC(C)=O (centres undefined)
viability change, negative = cytotoxic: inactive

COMPOUND: Nc1nc2ccc(OC(F)(F)F)cc2s1
viability change, negative = cytotoxic: inactive

COMPOUND: CC1=CC[C@@]23C[C@@H]1C(C)(C)[C@@H]2CC[C@H]3C
viability change, negative = cytotoxic: inactive

COMPOUND: CC(C(=O)O)c1ccc(C(=O)c2cccs2)cc1 (centres undefined)
viability change, negative = cytotoxic: inactive

COMPOUND: CCCCCCC(O)CCCCCCCCCCC(=O)OC (centres undefined)
viability change, negative = cytotoxic: inactive

* * *

# TEST PROTOCOL: qHTS assay to identify small molecule agonists of the sonic hedgehog signaling (Shh) pathway - cell viability counter screen (AID 1259366); also: nearly all actives have a fitted effect of over 50% in size
# EXPERIMENTAL CONDITIONS: NIH/3T3 Gli1-Luc viability, CellTiter-Fluor, 24 h; series mostly up to 92.4 µM
# Description: National Center for Advancing Translational Sciences [NCATS] NIH Chemical Genomics Center [NCGC] U.S. Environmental Protection Agency [EPA] National Institutes of Environmental Health Sciences [NIEHS] National Toxicology Program [NTP] U.S. Food and Drug Administration [FDA] The sonic hedgehog (Shh) pathway is essential for normal embryonic development. Dysregulation of the Shh pathway can cause severe developmental defects in organs. […]
Inconclusive results are not listed. Activity calls are given as the source filed them. The call rests on the fitted dose curve; in most records, active means well fitted cell-killing curve with a large enough effect in the repeat runs; inconclusive means weak or mixed curves, or effect the other way; inactive means flat fitted curve, though single readings scatter.
Labels: TRUE (active), FALSE (inactive)

COMPOUND: O=C(NC(Cc1cc(=O)[nH]c2ccccc12)C(=O)O)c1ccc(Cl)cc1 (stereo unspecified)
CATEGORY LABEL: FALSE

COMPOUND: CCCCC(CC)COS(=O)(=O)O (stereo unspecified)
CATEGORY LABEL: FALSE

COMPOUND: COc1cc(NC(C)CCCN)c2ncccc2c1 (stereo unspecified)
CATEGORY LABEL: FALSE

COMPOUND: Cc1c(C2(c3cc(Br)c(O)c(Br)c3C)OS(=O)(=O)c3ccccc32)cc(Br)c(O)c1Br
CATEGORY LABEL: TRUE

COMPOUND: Cc1ccc(S(=O)(=O)NC(=O)NC2CCCCC2)cc1
CATEGORY LABEL: FALSE

COMPOUND: CC1CCCC(=O)C1=O (stereo unspecified)
CATEGORY LABEL: FALSE
